System: intestinal alkaline phosphatase [Mus musculus]
Test: mouse intestinal phosphatase enzyme activation – biochemical, luminescence, single concentration, confirmation (AID 434970)
Conditions: purified mouse IAP, CDP-Star luminescence, 30 min, at 10 µM
Hit rate of the full screen: of about 11,000 compounds, about 310 (2.8%) were called active. No stated cut-off is given here; in the data, active means activity change below about -85%; inactive means the rest. Many of the other results were omitted from the sample, so actives are more common in it than they were.
Assign a class; possible classes are active, inactive

1. C#CCOCCOCCOCCNc1nc(N2CCN(C(=O)CCCCCCCCCCNC(=O)[C@H]([C@@H](C)CC)n3cc(CCCCN=C(N)N)nn3)CC2)nc(N2CCN(C(=O)CCCCCCCCCCNC(=O)[C@@H]([C@H](C)O)n3cc(C)nn3)CC2)n1	active
2. CN(C)S(=O)(=O)Oc1cccc(C(=O)Nc2ccc(Cl)cc2)c1	inactive
3. CN(C)S(=O)(=O)Oc1cccc(C(=O)Nc2ccc(Cl)c(Cl)c2)c1	inactive

In the following, a different compound is considered.
Problem: Hi, do you know how CC(C)(C)N(NC(=O)Nc1ccc(Cl)c(Cl)c1)C(=O)c1ccccc1 came out in this test?
Result: active

====

Test system: intestinal alkaline phosphatase [Mus musculus]
Assay: mouse intestinal phosphatase enzyme activation – biochemical, luminescence, single concentration, confirmation (AID 434970)
Settings: purified mouse IAP, CDP-Star luminescence, 30 min, at 10 µM; measured here: IAP activation factor, stronger effect = higher value
In all, about 11,000 compounds went through this assay and about 310 (2.8%) were called active. The list comes from a sample in which actives are over-represented; it also holds close analogues and randomly drawn compounds.
Parameter threshold = 1. Response is Condition met when activation factor meets or exceeds it, else Condition not met.

1) COc1ccc(C2CC(c3cccc(F)c3)=NN2c2ccc(S(N)(=O)=O)cc2)cc1 (centres undefined)	Condition met

Problem: Answer whether activation factor of COc1ccc(Cl)cc1NC(=O)C1CCCO1 (centres undefined) is greater than or equal to 1.
Result: Condition not met

Problem: How about this compound: COc1ccc(NC(=O)C2CCCN2c2ccc(OC)c(OC)c2)cc1OC (centres undefined)
Result: Condition met

Problem: How about this compound: CCN(CC)S(=O)(=O)c1ccc(Cl)c(C(=O)Oc2cccnc2)c1
Result: Condition not met

Problem: How about this compound: COc1ccc(NC(=O)c2ccco2)cc1NC(=O)c1cccc(OC(C)C)c1
Result: Condition not met

Problem: How about this compound: CCCCC(=O)Nc1ccc(F)c(Cl)c1
Result: Condition met

====

Tested on: intestinal alkaline phosphatase [Mus musculus]
Test: mouse intestinal phosphatase enzyme activation – biochemical, luminescence, single concentration, confirmation (AID 434970)
Conditions: purified mouse IAP, CDP-Star luminescence, 30 min, at 10 µM; measured here: IAP activation factor, stronger effect = higher value
Hit rate of the full screen: of about 11,000 compounds, about 310 (2.8%) were called active. Shown is part of a subset that was picked to be rich in actives.
Parameter threshold = 1. Response is criterion met when activation factor meets or exceeds it, else criterion not met.

Problem: Answer whether activation factor of Cc1cc(-c2csc(NC(=O)c3ccc(=O)[nH]c3)n2)c(C)n1Cc1ccco1 is greater than or equal to 1.
Result: criterion not met

====

# activity change, negative = activation per record follows
Tested on: intestinal alkaline phosphatase [Mus musculus]
Assay: mouse intestinal phosphatase enzyme activation – biochemical, luminescence, single concentration, confirmation (AID 434970)
Conditions: purified mouse IAP, CDP-Star luminescence, 30 min, at 10 µM; stronger effect = lower value
Hit rate of the full screen: of about 11,000 compounds, about 310 (2.8%) were called active. The entries come from a sample that favours actives as a whole.
All answers are understood in %, so give the number only.

1) CC(=O)N1CCN(c2ccc(NCc3ccc(C)cc3)cc2)CC1	-9.45
2) CCOC(=O)c1cnc(SCc2cccc(C)c2)nc1N	-7.85
3) COC(=O)C1=NN(c2ccccc2)C2(S1)SC(C(C)=O)=C(C)N2c1ccccc1 (stereo not given)	8
4) COc1ccc(-n2ncc3c(=O)n(CC(=O)N4c5ccccc5CC4C)cnc32)cc1 (stereo not given)	-0.2
5) COc1ccccc1C(=O)Nc1ccc(CN2CCCCC2)cc1	6

Problem: What does the record list as activity change, negative = activation for COc1ccccc1CNC(=O)Cn1cccc1 ?
Result: 5.65

Problem: How about this compound: COc1cccc(CN(CC(=O)NC2CCCC2)C(=O)Cn2nnc(-c3cccs3)n2)c1
Result: -7.3

Problem: How about this compound: COc1ccc(C2/C=C\CC(NS(=O)(=O)c3ccc(C)cc3)CC(=O)N2Cc2ccccc2F)cc1 (stereo not given)
Result: -17.7

Problem: How about this compound: Cc1ccc(NC(=O)NC2(C(=O)NCc3ccccc3)CCCCC2)cc1
Result: -131

Problem: How about this compound: O=C(NCc1ccc(Cl)cc1Cl)C1CCN(S(=O)(=O)c2ccc3c(c2)OCCCO3)CC1
Result: -48.2
